B1: DNA topoisomerase 3-alpha, residues 812 to 851; numbered along this chain, Q13472 (parent)
chain: TCNCGQEAVLLTVRKEGPNRGRQFFKCNGGSCNFFLWADS

Variants of: B1
Experiment: abundance fitness (aPCA) (normalised: wild type 0, dead -1); higher = more abundant; growth selection in yeast, the domain comes from the species named
Conditions: Homo sapiens
Entry flag: rule met if abundance fitness reaches -0.4; rule not met if it does not.

Examples from the recorded data:
W37V
rule met
C32V
rule not met
R14Y
rule met
S31I
rule met

IN: // inclusive: abundance fitness at least -0.4? input: F35E
OUT: rule not met

IN: // inclusive: abundance fitness at least -0.4? input: A8P
OUT: rule met

IN: // inclusive: abundance fitness at least -0.4? input: L10A
OUT: rule met
